Cited source for all entries: patent US20200140532A1

Assay System: T1, recombinant rat Aggrecan G1-IGD-G2 (rat, UniProt P07897 20-684, limits assumed)
T1 construct: also called Rat G1-IGD-G2
Test Summary: ELISA on recombinant G1-IGD-G2
Each item that follows carries a reported EC50.
Return type: number; implicit unit nM.

[[record]]
binder = "C01010046 (601E08-ALB26) (VHH, not shown: small tags and cut ends) VHH: DVQLVESGGGLVQPGGSLRLSCTASGRTFSSYAVGWFRQAPGKEREFVAAISRSGRSTYYADSVKGRFTISRDNSKNTVYLQMNSLRPEDTAVYYCAAGLSYYSPHAYYDYWGQGTLVTVSS"
endpoint_result = 0.32


EC50 lookup needed for C01010060 (606A07-ALB26) (VHH, not shown: small tags and cut ends) VHH: DVQLVESGGGLVQPGGSLRLSCVASGRTFSIYGMGWFRQAPGKEREFVAAINGGSRTYYADSVKGRFTISRDNSKNTVYLQMNSLRPEDTAVYYCAADRSGYGTSLDWWYDYWGQGTLVTVSS , thanks. 8.4
